tested on: TK-10 renal; experiment: NCI-60 one-dose screen, 48 h (100 = growth as untreated, 0 = no growth, -100 = all killed); details: 10 µM unless noted
About 83,000 compounds went through this panel and 20% of them were active in at least one assay; those are over-represented in the sample as a whole. Activity calls are given as the source filed them. Rule for the calls: active = growth percent below 10; inactive = the rest.
Items are presented alongside their recorded growth.

Worked examples, 7 compounds total:
Cc1nc2sc(C(=O)Nc3cccc(Br)c3C)c(N)c2cc1C(O)c1ccccc1 (stereo not drawn) ... 44.7% (inactive)
O=C(/C=C/c1ccc(Cl)cc1)c1cccc(OCCCOc2cccc(C(=O)/C=C/c3ccc(Cl)cc3)c2)c1 ... 95.6% (inactive)
Oc1c(CN2CCC(N3CCCCC3)CC2)cc(Cc2cc(CN3CCC(N4CCCCC4)CC3)c(O)c3ncccc23)c2cccnc12 ... 33.5% (inactive)
[2H]C([2H])([2H])Oc1ccc(F)cc1/C=C/C(=O)/C=C(O)/C=C/c1cc(F)ccc1OC([2H])([2H])[2H] ... 121% (inactive)
CC1(C)CC2=C3C=C[C@@H]4[C@@]5(C)CCC(=O)C(C)(C)[C@@H]5CC[C@@]4(C)[C@]3(C)CC[C@@]2(C(=O)O)C[C@H]1O ... 16.9% (inactive)
S=c1[nH]c(=S)c2c(-c3ccccc3)c(-c3ccccc3)oc2[nH]1 ... 124% (inactive)
Clc1ccc(-c2cc(-c3ccccc3)nc(NCCNc3ccnc4cc(Cl)ccc34)n2)cc1 ... 106% (inactive)

Consider the record given below.
[ask] Using the record for NC(=O)c1c(NC(=O)c2cccs2)sc2c1CCC(=O)C2 , report its growth.
[reply] 59.8% (inactive)

---

tested on: SK-MEL-5 melanoma; assay: NCI-60 one-dose screen, 48 h; details: 10 µM unless noted
This is part of a sample that, as a whole, favours compounds with a hit. Of some 83,000 tested, about 20% had one in any assay. The source made the active and inactive calls. The calls were made as follows: active = growth percent below 10; inactive = the rest.
Select the correct class. Options are active, inactive and nothing else.

Worked set:
CCOC(=O)c1nn(CC(O)c2ccccc2)c(NC(=O)Nc2cccc(F)c2)c1C (centres undefined) ... inactive
O=C(Cc1ccc(NC(=O)c2cccc(Cl)c2)cc1)NCc1ccccc1 ... active

[ask] // return assay outcome for COCCn1cc(-c2csc(-c3c[nH]c4ccc(Br)cc34)n2)c2cccnc21
[reply] inactive

[ask] // return assay outcome for CC1=CC(c2ccco2)=C2C(N)=NNC2N1 (centres undefined)
[reply] inactive

[ask] // return assay outcome for CC(C)(C)n1cc(-c2ccnc(NCCNS(=O)(=O)c3ccc(O)cc3)c2)c(-c2cccc(O)c2)n1
[reply] inactive

[ask] // return assay outcome for O=C(NNc1cnccn1)c1nc2cc(F)ccc2n2cccc12
[reply] active

---

system: PC-3 prostate; experiment: NCI-60 one-dose screen, 48 h; conditions: 10 µM unless noted
This is part of a sample that, as a whole, favours compounds with a hit. Of some 83,000 tested, about 20% had one in any assay. Activity calls are given as the source filed them. The calls were made as follows: active = growth percent below 10; inactive = the rest.
Select the correct class. Options are TRUE for active, FALSE for inactive and nothing else.

Worked set:
Cc1ccc(C(=O)Nc2cccc(C#Cc3cccc4[nH]nc(N)c34)c2)cc1C(F)(F)F ... FALSE
Cc1ccc(-c2nc(/C=C3/C(=O)Nc4ccc(F)cc43)c3ccccn23)cc1 ... FALSE
O=C1/C=C/[C@@H](O)[C@@H]2C[C@@H](O)C[C@H]2/C=C/CCC[C@@H](O)CCO1 ... FALSE
O=C1c2ccccc2C(=O)C1c1ccc(Br)cc1 ... FALSE
NS(=O)(=O)c1ccc(C(=O)NN2C(=O)c3c(Br)c(Br)c(Br)c(Br)c3C2=O)cc1 ... FALSE
COC(=O)CCC/C=C\C[C@H]1C=CC(=O)/C1=C/C[C@@H](O)C/C=C\CC(F)(F)F ... TRUE

[ask] // return assay outcome for N=C(N)c1ccc(-c2ccc(-c3cc(Cl)cc(Cl)c3)s2)nc1
[reply] FALSE

[ask] // return assay outcome for COc1cc(Cl)c(C)cc1NC(=O)c1cc2ccccc2cc1O
[reply] TRUE

[ask] // return assay outcome for CCCCNC(=O)c1cc([N+](=O)[O-])cc(C2CCCCC2)c1O
[reply] FALSE

---

tested on: HOP-92 NSCLC; experiment: NCI-60 one-dose screen, 48 h (100 = growth as untreated, 0 = no growth, -100 = all killed); conditions: 10 µM unless noted
This is part of a sample that, as a whole, favours compounds with a hit. Of some 83,000 tested, about 20% had one in any assay. Calls of active or inactive are those of the source. The calls were made as follows: active = growth percent below 10; inactive = the rest.
Readout Name: growth

Worked examples, 3 compounds total:
O=C(/C=C/C12c3ccccc3C(c3ccccc31)C1C(=O)NC(=O)C12)c1ccc(Br)cc1 (centres undefined) ... 74.5% (inactive)
C=C(CNCCO)[C@@H]1CC[C@]2(CO)CC[C@]3(C)[C@H](CC[C@@H]4[C@@]5(C)CCC(N)C(C)(C)[C@@H]5CC[C@]43C)[C@@H]12 (some centres undefined) ... 54.5% (inactive)
Cc1c(Cl)cccc1C(=O)Nc1nc2c(s1)CN(C(=O)c1ccc(C(F)(F)F)cc1)CC2 ... 35.9% (inactive)

Consider the record given below.
[ask] Using the record for COc1cccc(/C=C/C(=O)c2cc3c(N)c(C(=O)Nc4cccc5ccccc45)sc3nc2C)c1 , report its growth.
[reply] 68.8% (inactive)

---

system: HS 578T breast; test: NCI-60 one-dose screen, 48 h; settings: 10 µM unless noted
About 83,000 compounds went through this panel and 20% of them were active in at least one assay; those are over-represented in the sample as a whole. Active and inactive are the calls of the source. Rule for the calls: active = growth percent below 10; inactive = the rest.
Select the correct class. Options are active, inactive and nothing else.

CC(C)=CCNc1ncnc2c1ncn2C1OC(CO)C(O)C1O (centres undefined) ... active

[ask] // return assay outcome for COc1cccc(/C=N/NC(=O)c2ccccc2N2CCCC2)c1O
[reply] inactive

[ask] // return assay outcome for COc1ccc(C2=NN(C(C)=O)C(c3cn(-c4ccccc4)nc3-c3ccc(Cl)cc3)C2)cc1 (centres undefined)
[reply] inactive

[ask] // return assay outcome for Cc1ccc(/C=C/C(=O)Nc2ncc(Cc3ccc(F)cc3)s2)o1
[reply] inactive

[ask] // return assay outcome for Cc1ccc(N2C(=O)CCC2=O)cc1
[reply] inactive

[ask] // return assay outcome for O=C(CCl)NNc1nccc(Nc2ccc(S(=O)(=O)Nc3ccncc3)cc2)n1
[reply] inactive

[ask] // return assay outcome for CCN1C(=O)N(CC)C2C1N=C(SCc1ccc(Cl)cc1)N2/N=C/C=C/c1ccccc1OC (centres undefined)
[reply] inactive

[ask] // return assay outcome for CCN1CCN(C(=O)[C@]23CC[C@@H](C)[C@H](C)[C@@H]2C2=CC[C@@H]4[C@@]5(C)C/C(=C/c6cccnc6)C(=O)C(C)(C)[C@@H]5CC[C@@]4(C)[C@]2(C)CC3)CC1
[reply] inactive

[ask] // return assay outcome for CC(=C(c1ccc(OCCN2CCCCC2)cc1)c1ccc(OCCN2CCCCC2)cc1)c1ccc(Cl)cc1
[reply] active

---

tested on: SK-MEL-2 melanoma; assay: NCI-60 one-dose screen, 48 h; settings: 10 µM unless noted
This is part of a sample that, as a whole, favours compounds with a hit. Of some 83,000 tested, about 20% had one in any assay. Active and inactive are the calls of the source. Rule for the calls: active = growth percent below 10; inactive = the rest.
Select the correct class. Options are t = active, f = inactive and nothing else.

Worked set:
O=C1NC(=O)/C(=C/c2c(-c3ccccc3)nc3sc(COc4ccccc4)nn23)S1 ... f
C=CC(=O)Nc1ccc(Nc2nccc(-c3ccc(N4CCCC4)c(C#N)c3)n2)cc1 ... t
COc1cc(OC)c2sc(-c3ccc(-n4cncc4-c4cc(OC)c(OC)c(OC)c4)cc3)nc2c1 ... f

Turning to the following molecule.
[ask] // return assay outcome for O=C(NCc1cccc(CNC(=O)Nc2nc3ccccc3[nH]2)c1)Nc1nc2ccccc2[nH]1
[reply] t

---

system: SW-620 colon; assay: NCI-60 one-dose screen, 48 h (100 = growth as untreated, 0 = no growth, -100 = all killed); details: 10 µM unless noted
This is part of a sample that, as a whole, favours compounds with a hit. Of some 83,000 tested, about 20% had one in any assay. Calls of active or inactive are those of the source. How the source made its calls: active means growth percent below 10; inactive means the rest.
Readout Name: growth

Cc1ccc2c(-c3nnc(N)s3)cc(=O)oc2c1C ... 97.8% (inactive)
Cn1cc(-c2ccc(-c3cn(C)c4ccc(Cl)cc34)[nH]2)c2cc(Cl)ccc21 ... -83.1% (active)
Nn1c(=O)c(=O)[nH]c2c(cnn2-c2ccccc2)c1=O ... 110% (inactive)
O=C1/C(=C2\SC(=S)N(C3CC3)C2=O)SC(=S)N1C1CC1 ... 98.4% (inactive)
CCN1C(=O)N(CC)C2C1NC(=S)N2/N=C/c1ccc(C(F)(F)F)cc1 (stereo unspecified) ... 55.3% (inactive)

[ask] Using the record for CS(=O)(=O)c1nnc(-c2ccccc2)s1 , report its growth.
[reply] 84.8% (inactive)

[ask] Using the record for CN(C)c1ccc(-c2nc(-c3ccccc3)c(-c3ccccc3)[nH]2)cc1 , report its growth.
[reply] 108% (inactive)

[ask] Using the record for FC(F)(F)Oc1cccc(-c2cnc3ccc(-c4ccncc4)nn23)c1 , report its growth.
[reply] 23.2% (inactive)

[ask] Using the record for CSC1=Nc2c(c(C)c(-c3ccccc3)n2CCCC(=O)O)C2=NC(=O)C[C@H](C)N12 , report its growth.
[reply] 102% (inactive)

[ask] Using the record for CC1=CC(c2ccco2)=C2C(N)=NNC2N1 (stereo unspecified) , report its growth.
[reply] 102% (inactive)

[ask] Using the record for COc1ccc(/C=C/C(c2cc(OC)c(OC)c(OC)c2)n2cncn2)cc1 (stereo unspecified) , report its growth.
[reply] 26.6% (inactive)
